Test: pKa value of the compound
Assay type: physicochemical
measured property: pKa

-- ask Param item = NC(=O)CN1CCC[C@H](OCc2cc(C(F)(F)F)cc(C(F)(F)F)c2)[C@@H]1c1ccccc1 ; retrieve measured pKa.
-- reply 5.4

-- ask Similarly, NC(=O)CCN1CCC[C@H](OCc2cc(C(F)(F)F)cc(C(F)(F)F)c2)[C@@H]1c1ccccc1 ?
-- reply 6.5

###

Experiment: Inhibition of [3H]diltiazem binding to L-type calcium channel of rabbit skeletal muscle at 5 uM
Format: functional
Conditions: Oryctolagus cuniculus, Muscle tissue
measured property: inhibition at 5 µM (%)
State the answer as a number, implicitly in %.

-- ask Param item = NC(=O)CCCN1CCC[C@H](OCc2cc(C(F)(F)F)cc(C(F)(F)F)c2)[C@@H]1c1ccccc1 ; retrieve measured inhibition at 5 µM.
-- reply 98

-- ask Similarly, NC(=O)C(=O)N1CCC[C@H](OCc2cc(C(F)(F)F)cc(C(F)(F)F)c2)[C@@H]1c1ccccc1 ?
-- reply 0

-- ask Similarly, CC(=O)N1CCC[C@H](OCc2cc(C(F)(F)F)cc(C(F)(F)F)c2)[C@@H]1c1ccccc1 ?
-- reply 0

-- ask Similarly, CNC(=O)CN1CCC[C@H](OCc2cc(C(F)(F)F)cc(C(F)(F)F)c2)[C@@H]1c1ccccc1 ?
-- reply 0

-- ask Similarly, CN(C)C(=O)CN1CCC[C@H](OCc2cc(C(F)(F)F)cc(C(F)(F)F)c2)[C@@H]1c1ccccc1 ?
-- reply 0

Continuing:
-- ask Param item = O=C(O)CN1CCC[C@H](OCc2cc(C(F)(F)F)cc(C(F)(F)F)c2)[C@@H]1c1ccccc1 ; retrieve measured inhibition at 5 µM.
-- reply 7

-- ask Similarly, NC(=O)CCN1CCC[C@H](OCc2cc(C(F)(F)F)cc(C(F)(F)F)c2)[C@@H]1c1ccccc1 ?
-- reply 98

-- ask Similarly, COC(=O)C(=O)N1CCC[C@H](OCc2cc(C(F)(F)F)cc(C(F)(F)F)c2)[C@@H]1c1ccccc1 ?
-- reply 0

###

Assay: Inhibition of [3H]diltiazem binding to L-type calcium channel of rabbit skeletal muscle
Type: functional, tissue-based, Oryctolagus cuniculus, Muscle tissue
pIC50: −log10 of the molar value.
measured property: pIC50

-- ask Param item = FC(F)(F)c1cc(CO[C@H]2CCCN[C@H]2c2ccccc2)cc(C(F)(F)F)c1 ; retrieve measured pIC50.
-- reply 6.12

A: CN1CCC[C@H](OCc2cc(C(F)(F)F)cc(C(F)(F)F)c2)[C@@H]1c1ccccc1
B: COC(=O)CN1CCC[C@H](OCc2cc(C(F)(F)F)cc(C(F)(F)F)c2)[C@@H]1c1ccccc1
C: FC(F)(F)c1cc(CO[C@H]2CCCN(Cc3ccccc3)[C@H]2c2ccccc2)cc(C(F)(F)F)c1
-- ask Please give the order of these molecules when sorted by pIC50, largest value leading. Please respond by ranking the labels in the order requested.
-- reply C, B, A
(C: 8.39, B: 7.59, A: 6.14)
